These entries and their values trace back to paper PMC9482650.

- study.system: T1, GIPC1, O14908
- T1 sequence (O14908 128-223, limits assumed, looked up): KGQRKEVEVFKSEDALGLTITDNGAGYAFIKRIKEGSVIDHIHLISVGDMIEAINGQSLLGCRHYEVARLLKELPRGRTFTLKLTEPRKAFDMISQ
- experimental.protocol: holdup assay
- Parameters: key: below the threshold = too weak to quantify, mostly under pKd 3.1 to 4
- condition: plain residues with an end cap or a label only (N-terminal biotin on a linker: ttds)
measurement.name: pKd

> print(dat)
                          binder               result
1   SSIDLWETAL [SLC15A5, A6NIM6]  below the threshold
2      SGGKRKETLV [NET1, Q7Z628]                 4.28
3  PPRQRSETQV [HPV82-E6, Q9IR59]                 4.27
4  SRSRRRETAL [HPV33-E6, P06427]  below the threshold
5      SHSSKGETAV [FZD7, O75084]                 4.44
6    PSRDRKETSI [RALBP1, Q15311]                 3.78

As a next step, examine the binder that follows.
**Query** Which pKd is reported for this binder? KLVIKTETTV [RASSF6, Q6ZTQ3]
**Result** 4.57
